In this section, each of the compounds is paired with its reported growth.
tested on: SNB-19 CNS; assay: NCI-60 one-dose screen, 48 h (100 = growth as untreated, 0 = no growth, -100 = all killed); details: 10 µM unless noted
Compounds without any hit were thinned out: in the full panel of roughly 83,000, 20% have a hit.

{"compound": "CCN1CCN(c2cc(C(=O)Nc3cccc(Nc4ccc5c(OC)cccc5n4)c3)cc(C(F)(F)F)c2)CC1", "growth / %": 36}
{"compound": "CC/C(=C(/c1ccc(Cl)cc1)c1ccc(OCCN(CC)CC)cc1)c1ccc(OC)cc1", "growth / %": 69.5}
{"compound": "Nc1ncc(-c2ccc3ncnc(N4CCc5cc(F)c(Cl)cc54)c3c2)cc1C(F)(F)F", "growth / %": 46.1}
{"compound": "Cc1ccc(OCCOCCOCCOCCOc2ccc(C)n(O)c2=S)c(=S)n1O", "growth / %": 15.3}
{"compound": "Cc1cc(=O)oc2cc(Oc3nc(-c4ccccc4)cn4c(-c5ccccc5)cnc34)ccc12", "growth / %": 64.4}
{"compound": "COc1cc2c(cc1-c1c(C)noc1C)ncc1nc(C3CCOCC3)n(C3CCC(OC(F)F)CC3)c12 (centres undefined)", "growth / %": 75.3}
{"compound": "O=C(/C=C/c1ccco1)Nc1ncc(Cc2ccc(F)cc2)s1", "growth / %": 48}
{"compound": "C=C(C)[C@@H]1CC[C@]2(C(=O)NC(C)=O)CC[C@]3(C)[C@H](CC[C@@H]4[C@@]5(C)CCCNC(C)(C)[C@@H]5CC[C@]43C)[C@@H]12", "growth / %": 58.3}
{"compound": "CCOC(=O)c1c(C)nc2c(c1N)C(=O)C(=O)N2CCc1ccc(OC)c(OC)c1", "growth / %": 84.8}

###

Tested on: HOP-62 NSCLC
Assay: NCI-60 one-dose screen, 48 h (100 = growth as untreated, 0 = no growth, -100 = all killed)
Settings: 10 µM unless noted
Protocol: Growth inhibition of the HOP-62 human Non-Small Cell Lung tumor cell line is measured as a screen for anti-cancer activity. Cells are grown in 96 well plates and exposed to the test compound for 48 hours. Compounds are tested at a single concentration, which is 10^-5 M for most compounds. The reported endpoint is percent growth (GI% or GIPRCNT), where numbers from 0 - 100% represent growth inhibition, and numbers from -100% - 0 represent cell death. […]
This is part of a sample that, as a whole, favours compounds with a hit. Of some 83,000 tested, about 20% had one in any assay.

{"entry smiles": "C(CCCSC1=NCCN1)CCSC1=NCCN1", "target entity": "HOP-62 NSCLC", "growth / %": 93.1}
{"entry smiles": "COC(=O)CNC(=O)c1ccc(NC(=O)c2[nH]c(C)c(Cl)c2Cl)c(O[C@H]2CCNC2)c1", "target entity": "HOP-62 NSCLC", "growth / %": 95.6}
{"entry smiles": "O=C(CSc1nnc(-c2ccc(Cl)c(Cl)c2)n1-c1ccccc1)Nc1ccc(C(=O)/C=C/c2ccc(Cl)cc2)cc1", "target entity": "HOP-62 NSCLC", "growth / %": 91.1}
{"entry smiles": "O=C(O)CCCN1C(=O)CSC1=S", "target entity": "HOP-62 NSCLC", "growth / %": 103}
{"entry smiles": "Nc1ncc(-c2ccc3ncnc(N4CCc5cc(F)c(Cl)cc54)c3c2)cc1C(F)(F)F", "target entity": "HOP-62 NSCLC", "growth / %": 33.1}

###

tested on: CCRF-CEM leukemia; experiment: NCI-60 one-dose screen, 48 h; settings: 10 µM unless noted
Compounds without any hit were thinned out: in the full panel of roughly 83,000, 20% have a hit. The source made the active and inactive calls. Rule for the calls: active = growth percent below 10; inactive = the rest.
Outcome codes: t = active, f = inactive

{"compound": "COC(=O)c1nc(-c2ccc(C)cc2)oc1N1CCOCC1", "target entity": "CCRF-CEM leukemia", "category": "f"}
{"compound": "CCN1C(=O)N(CC)C2C1NN=c1s/c(=C\\c3ccc([N+](=O)[O-])cc3)c(=O)n12 (stereo not drawn)", "target entity": "CCRF-CEM leukemia", "category": "f"}
{"compound": "COc1ccc(C(=O)C2OC3=C(C(=O)CC(C)(C)C3)C2c2cccc(Oc3ccccc3)c2)cc1 (stereo not drawn)", "target entity": "CCRF-CEM leukemia", "category": "f"}
{"compound": "Cc1ccc(S(=O)(=O)c2nc(-c3ccccc3)oc2S(C)=O)cc1 (stereo not drawn)", "target entity": "CCRF-CEM leukemia", "category": "t"}
{"compound": "Cc1csc(Nc2nc(-c3cccc(Cl)c3)nc(C(Cl)(Cl)Cl)n2)n1", "target entity": "CCRF-CEM leukemia", "category": "f"}
{"compound": "Cc1c(-c2cnc3ccc(Cl)cc3c2C(=O)O)nnn1-c1ccc(Cl)cc1", "target entity": "CCRF-CEM leukemia", "category": "f"}
{"compound": "CCCC1Cc2cc(-n3nc(C)c4c3CC(C)(C)CC4=O)cc(NC3CCC(O)CC3)c2C(=O)N1 (stereo not drawn)", "target entity": "CCRF-CEM leukemia", "category": "f"}
{"compound": "CN1/C(=C/C=C/c2n(Cc3ccc4ccccc4c3)c(Cl)c(Cl)[n+]2Cc2ccc3ccccc3c2)Oc2ccccc21", "target entity": "CCRF-CEM leukemia", "category": "t"}
{"compound": "COc1ccc(N/N=C/c2ccc3c(c2)Sc2ccccc2N3C)cc1", "target entity": "CCRF-CEM leukemia", "category": "f"}
{"compound": "N#CC1=C(N)Oc2c(ccc3cccnc23)C1c1ccccc1 (stereo not drawn)", "target entity": "CCRF-CEM leukemia", "category": "f"}
{"compound": "CCOC(=O)c1ccc2c(c1)[n+](=O)c(C(C)=O)c(C(F)(F)F)n2[O-]", "target entity": "CCRF-CEM leukemia", "category": "t"}
{"compound": "COc1cccc(-c2nn(-c3ccccc3)cc2-c2ccnc(-c3cccnc3)c2)c1", "target entity": "CCRF-CEM leukemia", "category": "f"}
{"compound": "C=C1C(=O)O[C@H]2[C@H]1CC/C(CNC(=O)/C=C/c1cc(OC)c(OC)c(OC)c1)=C\\CC[C@@]1(C)O[C@@H]21", "target entity": "CCRF-CEM leukemia", "category": "t"}
{"compound": "CC/C(=C(/c1ccc(Cl)cc1)c1ccc(OCCN2CCCCCC2)cc1)c1ccccc1", "target entity": "CCRF-CEM leukemia", "category": "f"}
{"compound": "COc1cc(CNC(=O)CCCC/C=C/C(C)C)ccc1OCc1cn(-c2ccc(C(F)(F)F)cc2)nn1", "target entity": "CCRF-CEM leukemia", "category": "f"}
{"compound": "O=C(/C=C/c1cccc([N+](=O)[O-])c1)c1ccc(Nc2nc(Nc3ccc(F)cc3)nc(Nc3ccc(Cl)cc3)n2)cc1", "target entity": "CCRF-CEM leukemia", "category": "f"}
{"compound": "CCOC(=O)C1=C(c2ccccc2)N=C2N(c3ccccc3)N=C(C(C)=O)N2C1c1ccc(Br)cc1 (stereo not drawn)", "target entity": "CCRF-CEM leukemia", "category": "f"}
{"compound": "C=C(CNCCc1ccc(O)cc1)[C@@H]1CC[C@]2(CO)CC[C@]3(C)[C@H](CC[C@@H]4[C@@]5(C)CCC(N)C(C)(C)[C@@H]5CC[C@]43C)[C@@H]12 (stereo partly drawn)", "target entity": "CCRF-CEM leukemia", "category": "t"}

###

System: SF-295 CNS
Test: NCI-60 one-dose screen, 48 h (100 = growth as untreated, 0 = no growth, -100 = all killed)
Conditions: 10 µM unless noted
Description: Cells are grown in 96 well plates and exposed to the test compound for 48 hours. Compounds are tested at a single concentration, which is 10^-5 M for most compounds. The reported endpoint is percent growth (GI% or GIPRCNT), where numbers from 0 - 100% represent growth inhibition, and numbers from -100% - 0 represent cell death. For example, a value of 40 represents 60% growth inhibition. A value of 0 means no net growth occurred over the course of the experiment. […]
Compounds without any hit were thinned out: in the full panel of roughly 83,000, 20% have a hit.
Class boundaries, taken from values of growth, are as follows: class 0 = under 70%, class 1 = from 70% up to 90%, class 2 = 90% and over

{"compound": "Cc1cc([N+](=O)[O-])ccc1NC(=O)c1ccc2c(c1)nc(-c1ccccc1)n2C1CCCCC1", "category": "class 1"}
{"compound": "CC(=O)c1c(/C=C/c2ccc(C)cc2)c2ccccc2[nH]c1=O", "category": "class 2"}
{"compound": "C=CN(C(=O)N1CCN(c2cc3c(cc2F)c(=O)c(C(=O)O)cn3C2CC2)CC1)c1nc(-c2ccc(C)cc2)cs1", "category": "class 0"}
{"compound": "Nc1ncc(-c2ccc3ncnc(N4CCc5cc(F)c(Cl)cc54)c3c2)cc1C=O", "category": "class 0"}
{"compound": "CCCCCCCCCCCCCC[n+]1ccc2c(C)c3c(c(C)c2c1)c1cc(O)ccc1n3CC", "category": "class 0"}
{"compound": "O=C(Nc1ncc(Cc2ccc(Cl)cc2)s1)C1=NCCCCN1", "category": "class 2"}
{"compound": "CC(=O)O[C@H]1C[C@@]2(C)[C@@H](C[C@@H](O)[C@H]3[C@@]4(C)CC[C@H](N5CCCC5)[C@@H](C)[C@@H]4CC[C@@]32C)/C1=C(\\CCC=C(C)C)C(=O)O", "category": "class 2"}
{"compound": "Cc1ccc(S(=O)(=O)c2nc(-c3ccccc3)oc2S(C)=O)cc1 (stereo not given)", "category": "class 1"}
{"compound": "Nc1ccc(Cl)c2c(=O)c3ccccc3[nH]c12", "category": "class 1"}
{"compound": "Cc1ccc2c(n1)C[C@H](C(C)(C)O)CC[C@H]2C", "category": "class 2"}
{"compound": "C#C[C@]1(O)CC[C@H]2[C@@H]3CC=C4c5sc(-c6ccccc6)nc5CC[C@]4(C)[C@H]3CC[C@@]21C", "category": "class 0"}
{"compound": "O=C(Nc1ccc(Oc2cccc(F)c2)c(Cl)c1)c1cnccn1", "category": "class 0"}
{"compound": "Nc1nc(Nc2ccc([N+](=O)[O-])cc2O)nc(C(Cl)(Cl)Cl)n1", "category": "class 2"}
{"compound": "COc1ccc(/C(C)=C(\\c2ccc(Cl)cc2)c2ccc(OCCCN(C)C)cc2)cc1", "category": "class 1"}
{"compound": "COc1cccc(C2C3=C(COC3=O)N(CCO)c3cc4c(cc32)OCCO4)c1 (stereo not given)", "category": "class 0"}
{"compound": "COc1cc(CNC(=O)CCCC/C=C/C(C)C)ccc1OCc1cn(-c2cccc([N+](=O)[O-])c2)nn1", "category": "class 2"}
{"compound": "CC(=O)/C(Br)=C/c1ccc(Br)o1", "category": "class 1"}

The values you see were collected from PubChem BioAssay (NCI).
